# Measured On: CYP1A2 (Homo sapiens)
# Construct: purchased BD Biosciences, San Jose, Calif
# Sequence (P05177 1-516): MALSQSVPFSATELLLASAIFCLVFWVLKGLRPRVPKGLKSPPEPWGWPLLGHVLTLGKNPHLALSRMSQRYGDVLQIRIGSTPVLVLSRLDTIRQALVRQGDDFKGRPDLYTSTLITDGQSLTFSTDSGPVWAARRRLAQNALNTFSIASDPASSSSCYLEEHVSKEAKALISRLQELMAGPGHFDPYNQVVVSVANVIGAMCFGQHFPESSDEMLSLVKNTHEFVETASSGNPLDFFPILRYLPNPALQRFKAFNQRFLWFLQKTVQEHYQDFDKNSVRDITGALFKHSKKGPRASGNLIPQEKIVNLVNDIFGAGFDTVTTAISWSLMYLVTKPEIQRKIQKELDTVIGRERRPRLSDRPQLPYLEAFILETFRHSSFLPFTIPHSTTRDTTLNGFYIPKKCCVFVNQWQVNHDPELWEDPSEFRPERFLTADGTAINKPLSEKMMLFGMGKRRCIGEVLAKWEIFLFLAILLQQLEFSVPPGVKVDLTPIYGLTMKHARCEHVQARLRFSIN
# Method Summary: In vitro metabolism using human cytochrome P450 enzymes (CYP1A2)
# Assay type: in vitro ADME
# Condition Set: Cyp 1A2, 30 min, mean
Measured Attribute: Percent Remaining (%) 30 min
Hi! Could you send only the number? It should be in %, unit omitted.

| Compound | Units | Percent Remaining (%) 30 min |
| --- | --- | --- |
| [2H]C1([2H])c2c([nH]c3ccc(Cl)cc23)C(C(N)=O)C([2H])([2H])C1([2H])[2H] (stereo not shown) [Example 3] | % | 26.01 |
| CCOc1ccc(NC(C)=O)cc1 [Phenacetin] | % | 31.01 |
| [2H]C1(C(N)=O)CCCc2c1[nH]c1ccc(Cl)cc21 (stereo not shown) [Example 2] | % | 27.30 |

# next compound below
// field: Percent Remaining (%) 30 min; key: NC(=O)C1CCCc2c1[nH]c1ccc(Cl)cc21 (stereo not shown) [Example 1] ; value = 24.21

====

The entries below are paired with their reported half-life at 0.2 mM.
# Measured On: CYP3A4 (Homo sapiens, UniProt P08684)
# Sequence (P08684 whole entry): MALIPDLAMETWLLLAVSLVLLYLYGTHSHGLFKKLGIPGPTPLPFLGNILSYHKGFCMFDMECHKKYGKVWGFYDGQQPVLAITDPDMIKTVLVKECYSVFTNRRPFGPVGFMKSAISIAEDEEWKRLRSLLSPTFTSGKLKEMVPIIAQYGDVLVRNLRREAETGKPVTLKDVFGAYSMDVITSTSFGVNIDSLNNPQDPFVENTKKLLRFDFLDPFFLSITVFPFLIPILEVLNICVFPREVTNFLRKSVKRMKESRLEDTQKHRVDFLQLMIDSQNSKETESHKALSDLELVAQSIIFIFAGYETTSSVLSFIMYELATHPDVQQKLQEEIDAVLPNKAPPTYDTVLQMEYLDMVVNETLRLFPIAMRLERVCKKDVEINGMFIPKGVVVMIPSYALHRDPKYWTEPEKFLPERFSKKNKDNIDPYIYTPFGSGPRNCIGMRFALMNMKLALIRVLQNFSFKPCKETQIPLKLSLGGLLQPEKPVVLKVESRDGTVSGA
# Method Summary: In vitro metabolism using human cytochrome P450 enzymes (CYP3A4)
# Condition Set: human, recombinant CYP3A4 (baculovirus expression system), pH 7.4
Hi! Could you send only the number? It should be in min, unit omitted.

| Compound | Units | half-life at 0.2 mM |
| --- | --- | --- |
| NC(=O)C1CCCc2c1[nH]c1ccc(Cl)cc21 (stereo not drawn) | min | 52.5 |

// field: half-life at 0.2 mM; key: [2H]C1(C(N)=O)CCCc2c1[nH]c1ccc(Cl)cc21 (stereo not drawn) ; value = 52.8

// field: half-life at 0.2 mM; key: [2H]C1([2H])c2c([nH]c3ccc(Cl)cc23)C(C(N)=O)C([2H])([2H])C1([2H])[2H] (stereo not drawn) ; value = 70.7

====

# Measured On: CYP3A4 (Homo sapiens)
# Method Summary: In vitro metabolism using human cytochrome P450 enzymes (CYP3A4)
# Condition Set: Cyp 3A4, 30 min, mean
Measured Attribute: Percent Remaining (%) 30 min

| Molecule | Measured Attribute | Value Observed |
| --- | --- | --- |
| [2H]C1(C(N)=O)CCCc2c1[nH]c1ccc(Cl)cc21 (stereo not shown) | Percent Remaining (%) 30 min | 59.14% |
| NC(=O)C1CCCc2c1[nH]c1ccc(Cl)cc21 (stereo not shown) | Percent Remaining (%) 30 min | 55.02% |
| [2H]C1([2H])c2c([nH]c3ccc(Cl)cc23)C(C(N)=O)C([2H])([2H])C1([2H])[2H] (stereo not shown) | Percent Remaining (%) 30 min | 61.49% |
| Cc1ncc2n1-c1ccc(Cl)cc1C(c1ccccc1F)=NC2 | Percent Remaining (%) 30 min | BQL |
